Tested on: UT-SCC-24A
experiment: drug sensitivity score (DSS), cytotoxicity CellTox Green; higher = more cytotoxic; extreme values may be limits of the assay
experimental.setup: 72 h; shRNA: shScramble
Output schema: class label derived from drug sensitivity score. Mapping: low: < 2 DSS; moderate: ≥ 2 DSS and < 8 DSS; high: ≥ 8 DSS

Completed entries (count: 5):
• CC(=O)NCC(=O)N1[C@@H]2CC[C@H]1c1ccc(Nc3ncc(C(F)(F)F)c(NC4CCC4)n3)cc12 = moderate
• COc1cc(C(=O)NC2CCN(C)CC2)c(F)cc1Nc1ncc2c(n1)N(C1CCCC1)CC(F)(F)C(=O)N2C [TAK-960] = low
• CO[C@H]1C[C@@H]2CC[C@@H](C)[C@@](O)(O2)C(=O)C(=O)N2CCCC[C@H]2C(=O)O[C@H]([C@H](C)C[C@@H]2CC[C@@H](OCCO)[C@H](OC)C2)CC(=O)[C@H](C)/C=C(\C)[C@@H](O)[C@@H](OC)C(=O)[C@H](C)C[C@H](C)/C=C/C=C/C=C/1C [Everolimus] = low
• CCC1=C[C@@H]2CN(C1)Cc1c([nH]c3ccccc13)[C@@](C(=O)OC)(c1cc3c(cc1OC)N(C)[C@H]1[C@@](O)(C(=O)OC)[C@H](OC(C)=O)[C@]4(CC)C=CCN5CC[C@]31[C@@H]54)C2 [Vinorelbine] = high
• CN(C)C/C=C/C(=O)Nc1cc2c(Nc3ccc(F)c(Cl)c3)ncnc2cc1O[C@H]1CCOC1 [Afatinib] = high

Bin this entry: CN[C@@H](C)C(=O)N[C@H]1CN(C(=O)CC(C)C)CC[C@H]2CC[C@@H](C(=O)NC(c3ccccc3)c3ccccc3)N2C1=O [AT-406]
moderate

Bin this entry: CO[C@H]1C[C@@H]2CC[C@@H](C)[C@@](O)(O2)C(=O)C(=O)N2CCCC[C@H]2C(=O)O[C@H]([C@H](C)C[C@@H]2CC[C@@H](OC(=O)C(C)(CO)CO)[C@H](OC)C2)CC(=O)[C@H](C)/C=C(\C)[C@@H](O)[C@@H](OC)C(=O)[C@H](C)C[C@H](C)/C=C/C=C/C=C/1C [Temsirolimus]
low
